Where a SMILES comes first, the peptide text is derived from it. [ ]: non-standard residue; d: D form. The star is where a group is joined. Nle = CCCC[C@H](N)C(=O)O; Cbz = O=C(OCc1ccccc1)*
Here's what we have: GI50 numbers for T-47D breast.

Ask: Give T-47D breast GI50 for `COc1cc(C(=O)/C=C/c2c(C)n([O-])c3ccc(C(F)(F)F)cc3[n+]2=O)cc(OC)c1OC`
Reply: 2150 nM

More entries:
Ask: // map `Nc1nonc1-c1nc2cnccc2n1C1CCCCC1` to recorded GI50 (system: T-47D breast)
Reply: 13300 nM

Ask: How about this compound: `CC/C(=C(\c1ccc(Cl)cc1)c1ccc(OCCN2CCCCC2)cc1)c1ccc(O)cc1`
Reply: 1220 nM

Ask: Okay, and CCCC[C@@H](C=O)NC(=O)[C@H](CC(C)C)NC(=O)[C@H](CC(C)C)NC(=O)OCc1ccccc1 (Cbz-Leu-Leu-[Nle]-aldehyde) ?
Reply: 688 nM

Ask: What do you get for `Cc1nc2ccccn2c1NC(=O)NNC(=S)Nc1ccc(Cl)cc1` ?
Reply: > 100000 nM

====

# Test system: MDA-MB-435
# measurement-description: NCI tumour cell line growth inhibition, 48 h
measure-name: log10 TGI (log10 of the value in µM)
Hey, these are logged values: log10 of TGI, µM being the unit before logging.

Ask: Hello, I am looking for reported log10 TGI with MDA-MB-435 for `CC(=O)c1c(SCCN2CCCCCC2)n(-c2ccccc2)c(=S)n(-c2ccccc2)c1=O` . Could you help?
Reply: 1.41

Ask: Can you check `COc1ccc(-n2sc3ncc(C)cc3c2=O)cc1` next?
Reply: 1.61

Ask: Param item: `CC#CC#Cc1cccc(=O)o1`
Reply: 1.36

---
Ask: Form field - read-out: log10 TGI; system: MDA-MB-435; submitted item: COc1ccc(C2C(C#N)=C(N)Oc3c2sc2c(C)cccc32)cc1 (stereo unspecified)
Reply: -0.36

Ask: Here is the next compound: COc1ccc(C(O)c2cc3c(N)c(C(=O)Nc4ccc(Br)cc4)sc3nc2C)cc1 (stereo unspecified)
Reply: 0.44

Ask: What do you get for `Cc1c2ccccc2c(C)n2c1nc1cc3ccccc3cc12` ?
Reply: 0.49

Ask: Then `COC(=O)c1c(O)ccc2c1c1c(n2CCc2ccccc2)C(=O)c2ccccc2C1=O` ?
Reply: 1.31

Ask: Repeat with `C=CC(=O)N1CC2(CCC(n3nc(-c4ccc(Oc5ccccc5)cc4)c4c(N)ncnc43)CC2)C1`
Reply: 0.85

Ask: Try this compound too: CCCCC1C=Cn2c(=O)oc3c(OC(C)C)c(OC(C)C)c(O)c1c32 (stereo unspecified)
Reply: 1.43

====

# Test system: A498 renal
# measurement-description: NCI tumour cell line growth inhibition, 48 h
Where a SMILES comes first, the peptide text is derived from it. [ ]: non-standard residue; d: D form. The star is where a group is joined. Bn2Val = CC(C)[C@@H](C(=O)*)N(Cc1ccccc1)Cc1ccccc1; NH(4-F-benzyl) = Fc1ccc(CN*)cc1; NMeV = CN[C@H](C(=O)O)C(C)C; dNMeA = CN[C@H](C)C(=O)O
Entries and their TGI

Ask: // TGI lookup, key: `COc1ccc(/C=C/C(=O)c2ccc(NC(=O)CSc3nnc(-c4ccc(OC)c(OC)c4)n3-c3ccccc3)cc2)cc1`
Reply: 28 µM

***
Ask: # lookup: TGI of `Cn1c(N)c(Cc2ccc(Cl)cc2)c(=O)[nH]c1=O`
Reply: > 100 µM

Ask: What about CC(C)[C@H](NC(=O)[C@H](C(C)C)N(Cc1ccccc1)Cc1ccccc1)C(=O)N(C)[C@H](C(=O)N1CCC[C@H]1C(=O)N(C)[C@H](C)C(=O)NCc1ccc(F)cc1)C(C)C (Bn2Val-V[NMeV]P[dNMeA]-{NH(4-F-benzyl)}) ?
Reply: 6.71 µM

====

Test system OVCAR-8 ovarian, GI50 listed for each of the compounds.

Some compounds with known GI50 results, for comparison:
Ask: What GI50 value was documented for this compound, `COc1cccc2c(Nc3ccc(C(=O)O)cc3)cc(-c3ccccc3)nc12` ?
Reply: > 100 µM

Ask: // next record COc1ccccc1N1CCN(CC(O)COc2c(Br)c(Br)c(Br)c3c2OC(C)(C)C3)CC1 (centres undefined)
Reply: 31.5 µM

Ask: Also `CCSc1nc2[nH]c(=S)[nH]c(=S)c2c(-c2ccc(OC)c(OC)c2)c1C#N` ?
Reply: 18.9 µM

# input for lookup
Ask: Which value of GI50 has been reported for `CC#CC#Cc1cccc(=O)o1` in the records?
Reply: 4.89 µM

====

# TGI listing for each entry below
# Test system: IGROV1 ovarian
# measurement-description: NCI tumour cell line growth inhibition, 48 h
Give the quantity in µM, number only.

Ask: May I ask what TGI has been recorded for `COC(=O)C(=Cc1ccccc1[N+](=O)[O-])C(=O)OC` ?
Reply: 12

Ask: And the next one, `CCCCc1[nH]ccc2c(C)c3nc4ccccc4c3cc12` ?
Reply: 16.9

Continuing:
Ask: Param item = `C=CC(=O)N1CC2(CCC(n3nc(-c4ccc(Oc5ccccc5)cc4)c4c(N)ncnc43)CC2)C1` ; retrieve measured TGI.
Reply: 0.462

====

# Test system: T-47D breast
# measurement-description: NCI tumour cell line growth inhibition, 48 h
As shown below, each of these molecules has a reported TGI value.
Only the number, expressed in µM, is required.

Example molecules with recorded TGI:
Ask: What value of TGI has been reported for the following molecule? `C/C(Cc1ccc(Cl)cc1)=C(\c1ccc(OCCN2CCCCCC2)cc1)c1ccc(OC(=O)c2ccccc2)cc1`
Reply: 9.73

Ask: Moving on to the next molecule: COC(=O)C1SC(N(C)c2ccccc2)=NC12c1ccccc1Nc1ccccc12 (stereo not given)
Reply: 50

Ask: Next molecule up: CC(C)(C)OCC1NC(=O)[C@@H]2Cc3c([nH]c4ccccc34)C(C3CCCCC3)N2C1=O (stereo not given in full)
Reply: 71.1

Read the next record carefully.
Ask: What measured TGI goes with `Clc1nc(Cl)c2ncn(CC#CCn3cnc4c(Cl)nc(Cl)nc43)c2n1` ?
Reply: 4.13

====

Known TGI of a selection of compounds
# Tested on: UACC-257 melanoma
# measurement-description: NCI tumour cell line growth inhibition, 48 h

Take a look at these entries with their results.
Ask: Fill in: TGI of `CC1=C(/C=C/C(C)=C/C=C/C(C)=C/C=C/C=C(C)/C=C/C=C(C)/C=C/C=C(C)/C=C/C=C(\C)C(=O)O)C(C)(C)CCC1` is ___
Reply: > 100 µM

Ask: Now the compound `O=C(CC(=O)Nc1ccc(C(=O)O)cc1)Nc1ccc(C(=O)O)cc1`
Reply: > 100 µM

Ask: Another compound: `COc1cc2c3c(c1O)N=NC=3CCN=2`
Reply: 29.1 µM

Continuing:
Ask: Which TGI reading was recorded for the compound O=C1NC(c2cccc3ccccc23)Nc2ccc(O)cc21 (stereo not drawn) ?
Reply: > 84.4 µM

Ask: Another: `CC/C(=C(\c1ccc(Cl)cc1)c1ccc(OCCN2CCCCC2)cc1)c1ccc(O)cc1`
Reply: 3.94 µM

Ask: Next compound up: CCOC(=O)C(NC(=O)c1ccccc1)(Nc1cc(C)on1)C(F)(F)F (stereo not drawn)
Reply: > 100 µM

Ask: What would you report for `O=C(CSCC(=O)N/N=C\c1cc(Cl)cc(Cl)c1O)N/N=C\c1cc(Cl)cc(Cl)c1O` ?
Reply: 18.2 µM

Ask: Check COc1cc2c(cc1OC)C1c3ccccc3CCCN1CC2 (stereo not drawn) too.
Reply: > 100 µM

====

# Tested on: U251 CNS
# measurement-description: NCI tumour cell line growth inhibition, 48 h
Where a SMILES comes first, the peptide text is derived from it. [ ]: non-standard residue; d: D form. The star is where a group is joined. Bn2Val = CC(C)[C@@H](C(=O)*)N(Cc1ccccc1)Cc1ccccc1; NH(4-F-benzyl) = Fc1ccc(CN*)cc1; NMeV = CN[C@H](C(=O)O)C(C)C; dNMeA = CN[C@H](C)C(=O)O
measure-name: TGI

Below are worked cases with known answers.
Ask: Requested read-out: TGI. Entry: CC(C)[C@H](NC(=O)[C@H](C(C)C)N(Cc1ccccc1)Cc1ccccc1)C(=O)N(C)[C@H](C(=O)N1CCC[C@H]1C(=O)N(C)[C@H](C)C(=O)NCc1ccc(F)cc1)C(C)C (Bn2Val-V[NMeV]P[dNMeA]-{NH(4-F-benzyl)})
Reply: > 25.6 µM

Ask: Another compound: CC(=O)OC1(C)C(=O)OC/C2=C/CN(C)CCC(OC(=O)C(O)(C(C)Cl)CC1C)C2=O (stereo not drawn)
Reply: > 100 µM

Ask: How about COC(=O)C1=C(OC(=O)/C(=C/c2ccccc2)c2ccccc2)C(C(=O)OC)[C@@]2(O)[C@@H](C(=O)OC)[C@H](C)C[C@@H]1[C@@H]2C(=O)OC (stereo partly drawn) ?
Reply: > 100 µM

Ask: And for `CCOC(=O)C1=NC(c2ccccc2)(c2ccccc2)OC1=C(Cl)Cl` ?
Reply: > 100 µM

Ask: One more compound: Brc1ccc2c(C3CN[C@@H](c4c[nH]c5cc(Br)ccc45)CN3)c[nH]c2c1 (stereo partly drawn)
Reply: 18.5 µM

Continuing:
Ask: Endpoint output: TGI of `Nc1nonc1-c1nc2cnccc2n1C1CCCCC1` . Value?
Reply: > 25 µM

Ask: Now consider `O=C(NNc1cn[nH]c(=O)n1)c1cccc2nc3ccccc3nc12` .
Reply: > 100 µM

Ask: # iterate: C=C1CC(OC)(C(OC)C(=O)N(C)[C@H]2OCO[C@H]3C2O[C@H](C[C@@H](COC)OC)C(C)(C)C3OC)O[C@H](C)[C@@H]1C (stereo partly drawn)
Reply: 54.4 µM

Ask: And for `C=CC(=O)N1CC2(CCC(n3nc(-c4ccc(Oc5ccccc5)cc4)c4c(N)ncnc43)CC2)C1` ?
Reply: 12.7 µM

Ask: What do you have for `Cc1ccc(-c2c3c(nn2-c2ccc(S(=O)(=O)NC(=O)Nc4ccccc4)cc2)-c2ccccc2C3)cc1` ?
Reply: 37.6 µM
